The following are reported AC50 results, target or system Adenosine receptor A3 (Homo sapiens, UniProt P0DMS8). Further: assay procedure not described here.

Worked set:
compound: COc1cccc(N(C)C(=S)Oc2ccc3c(c2)CCCC3)n1 [LIRANAFTATE]
AC50: > 30 µM

compound: COc1cc2nccc(Oc3ccc(NC(=O)Nc4cc(C)on4)c(Cl)c3)c2cc1OC
AC50: > 3 µM

compound: CC(=O)Oc1ccccc1C(=O)Nc1ncc([N+](=O)[O-])s1 [NITAZOXANIDE]
AC50: 5 µM

compound: O=C1CN=C(c2ccccc2)c2cc(Cl)ccc2N1
AC50: > 30 µM

compound: CC(=O)OCC[N+](C)(C)C
AC50: > 30 µM

compound: CC1(C)O[C@@H]2[C@@H](CO[C@@]3(COS(N)(=O)=O)OC(C)(C)O[C@@H]23)O1 [TOPIRAMATE]
AC50: > 30 µM

compound: CNCC[C@H](Oc1cccc2ccccc12)c1cccs1
AC50: > 30 µM

compound: Nc1nc2c(c(=O)[nH]1)N(C=O)C(CNc1ccc(C(=O)N[C@@H](CCC(=O)O)C(=O)O)cc1)CN2 (some centres undefined)
AC50: > 30 µM

Moving on to the next compound.
Please report the measured AC50 for "CCn1cc(C(=O)O)c(=O)c2cc(F)c(N3CCNCC3)nc21" tested on Adenosine receptor A3 (Homo sapiens, UniProt P0DMS8). > 30 µM
